- method-notes: Chemopreventive activity in Syrian hamster embryo cells assessed as inhibition of metabolism of [3H]benzo(a)pyrene to water-soluble metabolites after 24 hrs at 10 ug/ml relative to control
- Type: functional
- experimental-conditions: Mesocricetus auratus, read-out: INH
Known inhibition at 10 µg/mL of a selection of compounds
Please give a number only; it is taken to be in %.

Solved cases (5 shown):
> print(dat)
                                   compound       reported.property  value.unit  recorded.number
1  COc1cc(C2CC(=O)c3c(cc(O)c(OC)c3O)O2)ccc1O (configuration not stated)  inhibition at 10 µg/mL           %               19
2  O=C1C[C@@H](c2ccccc2)Oc2cc(O)cc(O)c21 [PINOCEMBRIN]  inhibition at 10 µg/mL           %               29
3  O=c1cc(-c2ccccc2)oc2cc(O)cc(O)c12 [CHRYSIN]  inhibition at 10 µg/mL           %               44
4  COc1c(O)cc2oc(-c3ccc(O)cc3)cc(=O)c2c1O [HISPIDULIN]  inhibition at 10 µg/mL           %               75
5  COc1cc2oc(-c3ccc(O)cc3)cc(=O)c2c(O)c1OC [CIRSIMARITIN]  inhibition at 10 µg/mL           %               85

So, O=C1C[C@@H](c2ccc(O)c(O)c2)Oc2cc(O)cc(O)c21 [ERIODICTYOL] ? Its inhibition at 10 µg/mL was 40

So, COc1cc(-c2cc(=O)c3c(O)cc(O)cc3o2)ccc1O [CHRYSOERIOL] ? Its inhibition at 10 µg/mL was 85
